Entries annotated with measured Kd
measured_target: T1, Recombinant human integrin αvβ6 (human, UniProt P06756 31-992; P18564 22-707)
T1 construct: Bought soluble heterodimer; also called alpha-v-beta-6; avb6
T1 sequence (P06756 31-992, chain 1 of 2): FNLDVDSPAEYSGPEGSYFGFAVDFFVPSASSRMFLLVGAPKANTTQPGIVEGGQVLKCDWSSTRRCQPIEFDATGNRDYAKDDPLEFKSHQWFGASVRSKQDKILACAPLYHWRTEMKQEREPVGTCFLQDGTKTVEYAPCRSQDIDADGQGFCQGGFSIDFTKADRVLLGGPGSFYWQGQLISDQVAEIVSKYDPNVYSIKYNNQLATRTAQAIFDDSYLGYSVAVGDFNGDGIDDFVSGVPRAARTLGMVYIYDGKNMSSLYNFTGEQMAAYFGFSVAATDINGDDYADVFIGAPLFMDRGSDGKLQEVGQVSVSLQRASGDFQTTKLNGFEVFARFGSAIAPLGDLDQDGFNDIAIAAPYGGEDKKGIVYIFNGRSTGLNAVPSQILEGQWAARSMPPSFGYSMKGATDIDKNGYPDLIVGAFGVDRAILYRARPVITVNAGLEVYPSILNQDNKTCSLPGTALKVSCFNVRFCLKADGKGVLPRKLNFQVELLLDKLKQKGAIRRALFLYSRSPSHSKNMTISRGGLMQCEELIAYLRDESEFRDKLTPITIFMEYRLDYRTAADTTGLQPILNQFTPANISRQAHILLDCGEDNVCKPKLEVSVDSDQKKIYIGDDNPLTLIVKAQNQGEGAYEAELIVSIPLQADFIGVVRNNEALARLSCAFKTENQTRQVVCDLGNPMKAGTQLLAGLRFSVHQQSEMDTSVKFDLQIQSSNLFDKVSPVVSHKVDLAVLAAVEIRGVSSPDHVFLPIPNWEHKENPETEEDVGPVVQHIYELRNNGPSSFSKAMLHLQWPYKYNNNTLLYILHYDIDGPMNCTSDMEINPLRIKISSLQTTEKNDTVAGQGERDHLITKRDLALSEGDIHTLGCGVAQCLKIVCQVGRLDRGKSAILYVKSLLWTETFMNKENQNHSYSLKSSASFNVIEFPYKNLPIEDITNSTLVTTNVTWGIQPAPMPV
T1 sequence (P18564 22-707, chain 2 of 2): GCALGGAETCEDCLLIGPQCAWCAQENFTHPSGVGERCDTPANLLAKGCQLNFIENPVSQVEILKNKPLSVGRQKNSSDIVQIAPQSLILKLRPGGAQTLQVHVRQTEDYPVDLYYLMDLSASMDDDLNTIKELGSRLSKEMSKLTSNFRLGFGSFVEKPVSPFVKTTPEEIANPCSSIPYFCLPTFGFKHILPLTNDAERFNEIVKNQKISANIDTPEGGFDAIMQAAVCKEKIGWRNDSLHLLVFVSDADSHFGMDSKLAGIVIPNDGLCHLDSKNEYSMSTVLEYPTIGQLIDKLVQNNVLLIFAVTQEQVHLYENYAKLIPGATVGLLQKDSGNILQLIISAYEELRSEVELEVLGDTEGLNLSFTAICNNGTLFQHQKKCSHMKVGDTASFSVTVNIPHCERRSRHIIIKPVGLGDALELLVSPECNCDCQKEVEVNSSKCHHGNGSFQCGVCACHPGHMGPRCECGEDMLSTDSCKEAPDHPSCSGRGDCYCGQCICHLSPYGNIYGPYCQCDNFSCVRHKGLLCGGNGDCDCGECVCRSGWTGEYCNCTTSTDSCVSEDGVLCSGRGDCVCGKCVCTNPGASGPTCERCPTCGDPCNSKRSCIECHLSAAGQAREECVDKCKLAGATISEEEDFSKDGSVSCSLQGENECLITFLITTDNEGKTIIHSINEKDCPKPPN
assay_details: cell sorting study, peptide expressed on the surface of yeast
Write down the numeric answer in nM and omit the unit.

1) GCILNMRTDLGTLLFRCRRDSDCPGACICRGNGYCG (also called wild-type R01; wt) [R01]	1.07

Entry under review: GCILNWRTDLGTLLFRCRRDSDCPGACICRGNGYCG (also called R01 tryptophan substitution) [MΔW] . Reported Kd?
1.69
